- Test system: M14 melanoma
- measurement-description: NCI-60 one-dose screen, 48 h (100 = growth as untreated, 0 = no growth, -100 = all killed)
- experimental-context: 10 µM unless noted
Compounds without any hit were thinned out: in the full panel of roughly 83,000, 20% have a hit. The source made the active and inactive calls. Rule for the calls: active = growth percent below 10; inactive = the rest.
Recorded growth, one value per entry.

>  <structure-string>
Cc1cc2oc(=O)cc(CP(=O)(O)O)c2cc1O

>  <growth>
103% (inactive)

$$$$
>  <structure-string>
C/C(=C(\c1ccc(OCCN2CCCCCC2)cc1)c1ccc(OC(=O)Cc2ccccc2)cc1)c1ccc(Cl)cc1

>  <growth>
-53.1% (active)

$$$$
>  <structure-string>
CCOC(=O)n1cc(-c2nonc2-c2cn(C)c3ccccc23)c2ccccc21

>  <growth>
21.5% (inactive)

$$$$
>  <structure-string>
CCOC(=O)c1c(-c2ccc(Cl)cc2)c(C#N)c2c(C#N)c(N)nn2c1N

>  <growth>
75.5% (inactive)

$$$$

Consider now this further compound.
[in] Given the entry CCOC(=O)c1n[nH]n2c1nc(=O)c1cnn(C)c12 , report its measured growth.
[out] 102% (inactive)

###

- System: UO-31 renal
- measurement-description: NCI-60 one-dose screen, 48 h (100 = growth as untreated, 0 = no growth, -100 = all killed)
- experimental-context: 10 µM unless noted
About 83,000 compounds went through this panel and 20% of them were active in at least one assay; those are over-represented in the sample as a whole.
result-type: growth (%)
Numbers only; they are read as %.

>  <molecule>
COc1ccc(C/C(C)=C(/c2ccc(OCCN3CCCCCC3)cc2)c2ccc(OC(=O)NCc3ccccc3)cc2)cc1

>  <numeric-result>
62.7

$$$$
>  <molecule>
N#Cc1c(-c2ccccc2)nc2c(c(-c3ccccc3)nn2-c2ccccc2)c1-c1ccc(N2CCOCC2)cc1

>  <numeric-result>
70.3

$$$$
>  <molecule>
CCC(C)Nc1ccc(NC(C)CC)cc1 (stereo unspecified)

>  <numeric-result>
84.4

$$$$

[in] Lab note: need growth with UO-31 renal for entry COc1cccc(/C=C2\COc3ccc(O)cc3C2=O)c1 , please look it up.
[out] 69.1

[in] Lab note: need growth with UO-31 renal for entry Cc1ccc(-c2nc(C#N)c(S(=O)(=O)NCCO)o2)cc1 , please look it up.
[out] 62.1

[in] Lab note: need growth with UO-31 renal for entry Nc1c(C(=O)Nc2ccccn2)sc2nc3c(cc12)C(O)CCC3 (stereo unspecified) , please look it up.
[out] 43.6

###

- Test system: MALME-3M melanoma
- measurement-description: NCI-60 one-dose screen, 48 h (100 = growth as untreated, 0 = no growth, -100 = all killed)
- experimental-context: 10 µM unless noted
Compounds without any hit were thinned out: in the full panel of roughly 83,000, 20% have a hit.
result-type: growth (%)
Numbers only; they are read as %.

In the examples that follow, each entry is paired with its recorded growth.
>  <molecule>
O=C(/C=C\c1ccco1)/C=C/c1ccco1

>  <result-type>
growth

>  <numeric-result>
112

$$$$
>  <molecule>
C/C(=C(/c1ccc(Cl)cc1)c1ccc(OCCCN(C)C)cc1)c1ccc(Cl)cc1

>  <result-type>
growth

>  <numeric-result>
96.4

$$$$
>  <molecule>
CCCCCn1sc(=O)n(Cc2ccc(CNC(=O)OCc3ccc4c(Cl)cc(Cl)c(O)c4n3)cc2)c1=O

>  <result-type>
growth

>  <numeric-result>
70.4

$$$$

[in] Lab note: need growth with MALME-3M melanoma for entry CC(C)=CC(=O)N[C@@H]1CC2CCC3C(CC[C@@]4(C)C3CC[C@@H]4C(C)N(C)C)[C@@]2(C)C[C@@H]1O (stereo not given in full) , please look it up.
[out] 32.3

[in] Lab note: need growth with MALME-3M melanoma for entry O=C(N/N=C/c1ccc(Cl)cc1Cl)c1ccc2nc(-c3ccc(Cl)cc3)[nH]c2c1 , please look it up.
[out] -58.7

[in] Lab note: need growth with MALME-3M melanoma for entry COc1ccc(Cc2cnc(NC(=O)c3sc4ccccc4c3Cl)s2)cc1 , please look it up.
[out] 56.6

[in] Lab note: need growth with MALME-3M melanoma for entry COc1ccc2c(c1)c(-c1nc(-c3cn(C)c4ncccc34)cs1)cn2CCO , please look it up.
[out] 110

[in] Lab note: need growth with MALME-3M melanoma for entry COc1ccc(C(C)=O)cc1S(N)(=O)=O , please look it up.
[out] 99.3

[in] Lab note: need growth with MALME-3M melanoma for entry N#CCC1=NC(c2cccs2)=Nc2ccccc2S1 , please look it up.
[out] 99

[in] Lab note: need growth with MALME-3M melanoma for entry NC(=O)c1c(NC(=O)c2ccc(Cl)cc2)sc2c1CCC(=O)C2 , please look it up.
[out] 92.7
